# Tested on: S. Typhimurium SL1344 (sifB::gfp) in RAW 264.7 macrophages
# measurement description: SAFIRE macrophage assay: intracellular bacterial load (GFP signal within macrophages)
# Assay type: cell-based, Salmonella enterica serotype Typhimurium
# run parameters: 5 uM compound; n=1; DMSO solvent control = 98, rifampicin 2 μg/mL = 65
measured property: 5 uM Avg Antibacterial Score
One number for each entry.

For every record below, what is its 5 uM Avg Antibacterial Score?
1. N[C@H]1CC[C@H](NCC(O)COc2ccc(Cl)c(Cl)c2)CC1 (stereo partly drawn)
2. NC1CCN(CC(O)COc2cccc(C(F)(F)F)c2)CC1 (stereo not drawn)
3. NC1CCN(CC(COc2ccc(Cl)c(Cl)c2)OCc2ccccc2)CC1 (stereo not drawn)
4. NCCC1CCN(CC(O)COc2ccc(Cl)c(Cl)c2)CC1 (stereo not drawn)
5. N[C@@H]1CCN(C[C@@H](O)COc2ccc(Cl)c(Cl)c2)C1
6. CC1(N)CCN(CC(O)COc2cc(Cl)cc(Cl)c2)CC1 (stereo not drawn)
7. O[C@@H](COc1ccc(Cl)c(Cl)c1)CN1CCCCC1

Response line:
72
37
30
17
25
21
96

For every record below, what is its 5 uM Avg Antibacterial Score?
1. COC(COc1ccc(Cl)c(Cl)c1)CN1CCC(N)CC1 (stereo not drawn)
2. NCCC1CCN(CC(O)COc2cc(Cl)cc(Cl)c2)C1 (stereo not drawn)
3. CC1(N)CCN(CC(O)COc2ccc(Cl)c(Cl)c2)CC1 (stereo not drawn)
4. NCCC1CCN(CC(O)COc2ccc(Cl)c(Cl)c2)C1 (stereo not drawn)
5. OC(CN[C@H]1[C@@H]2CNC[C@@H]21)COc1cc(Cl)cc(Cl)c1 (stereo partly drawn)

Response line:
1: 28; 2: 98; 3: 20; 4: 100; 5: 48

---

# Test system: RAW 264.7 macrophages
# measurement description: SAFIRE macrophage assay: host toxicity (adherent macrophage count, morphology)
# Format: cell-based
# run parameters: 25 uM
Could you please report measured 25 uM Avg Cell # Score for the items listed next?

N=C(N)NC1CCN(CC(O)COc2ccc(Cl)c(Cl)c2)C1 (stereo not shown): 117
OC(COc1ccc(Cl)cc1Cl)CN1CCC(Nc2ncccn2)CC1 (stereo not shown): 141
CO[C@@H]1CCN(CC(O)COc2ccc(Cl)c(Cl)c2)C1 (stereo partly shown): 85
OC(COc1ccc(Cl)c(Cl)c1)CN1CCN(c2nccc(C(F)(F)F)n2)CC1 (stereo not shown): 101
OC(COc1ccc(Cl)c(Cl)c1)CN1CCC(Nc2nccs2)CC1 (stereo not shown): 105

For every record below, what is its 25 uM Avg Cell # Score?
1. NC1CCN(CC(O)COc2ccc3ccccc3c2)CC1 (stereo not shown)
2. NC1CCN(CC(O)COc2ccc(F)cc2)C1 (stereo not shown)
3. OC(COc1ccc(Cl)c(Cl)c1)CN1CCC(Nc2nccc(C(F)(F)F)n2)C1 (stereo not shown)
4. CC(C)(C)OC(=O)NC1CCN(CC(O)COc2ccc(Cl)c(Cl)c2)C1 (stereo not shown)
5. OC(COc1ccc(F)cc1)CN1CCC(Nc2nccc(C(F)(F)F)n2)CC1 (stereo not shown)
6. OC(COc1c(Cl)cccc1Cl)CN1CCC(Nc2nccc(C(F)(F)F)n2)C1 (stereo not shown)
7. CC(=O)NC1CCN(CC(O)COc2ccc(Cl)c(Cl)c2)C1 (stereo not shown)

Response line:
[22, 131, 91, 140, 117, 59, 110]

Prompt line: Look at this compound and give its reported 25 uM Avg Cell # Score. NC1CCCN(CC(O)COc2ccc(Cl)c(Cl)c2)CC1 (stereo not shown)
Response line: 19
